Target: Glucocorticoid Receptor (GR) (Homo sapiens, UniProt P04150)
Construct: purchased Invitrogen P2816
Sequence (P04150 1-777): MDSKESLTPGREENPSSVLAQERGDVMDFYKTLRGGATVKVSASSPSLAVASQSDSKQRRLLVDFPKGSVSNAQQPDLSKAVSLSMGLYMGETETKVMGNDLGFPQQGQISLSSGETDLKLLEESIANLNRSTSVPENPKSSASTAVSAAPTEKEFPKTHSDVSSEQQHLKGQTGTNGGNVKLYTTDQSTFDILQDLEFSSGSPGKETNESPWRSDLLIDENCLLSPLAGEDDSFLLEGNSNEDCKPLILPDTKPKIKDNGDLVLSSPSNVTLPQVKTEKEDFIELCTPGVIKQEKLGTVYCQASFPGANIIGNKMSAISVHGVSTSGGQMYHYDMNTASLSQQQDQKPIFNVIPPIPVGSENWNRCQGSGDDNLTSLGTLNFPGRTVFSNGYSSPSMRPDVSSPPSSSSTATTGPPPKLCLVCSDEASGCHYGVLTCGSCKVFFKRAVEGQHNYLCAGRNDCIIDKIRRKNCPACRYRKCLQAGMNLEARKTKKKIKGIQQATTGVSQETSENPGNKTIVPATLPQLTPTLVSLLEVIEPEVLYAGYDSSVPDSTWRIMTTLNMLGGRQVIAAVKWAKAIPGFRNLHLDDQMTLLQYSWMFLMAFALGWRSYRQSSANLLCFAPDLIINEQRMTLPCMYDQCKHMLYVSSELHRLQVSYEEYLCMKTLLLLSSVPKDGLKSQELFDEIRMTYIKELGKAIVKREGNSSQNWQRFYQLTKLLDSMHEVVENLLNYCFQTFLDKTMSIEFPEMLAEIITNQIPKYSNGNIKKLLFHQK
Experiment: GR receptor competitor assay by fluorescence polarization (Invitrogen GR competitor assay kit, cat No. P2816)
Conditions: 20 μM test compound solution, 10 μL per well plus 5 μL 4×GS1 and 5 μL 4×GR solution; recombinant human GR; 2 to 4 hours at room temperature; a ratio of 100% or more is indicated by 100%; read-out: GR Binding ratio (%)
READOUT KIND: inhibition at 10 µM
Could you write the number and then its unit?

A selection of reference data follows.
>>> print(df.to_string())
                               entry_smiles  experimental_result
0  COc1ccc([N+](=O)[O-])cc1OCc1c(-c2ccc(OS(=O)(=O)C3CC3)cc2OC)ccc2c1C(C)=CC(C)(C)N2                  98%
1  COc1cc(OC(=O)N2CCOCC2)ccc1-c1ccc2c(c1COc1cc(F)ccc1C)C(C)=CC(C)(C)N2                 100%

Kindly state the measured inhibition at 10 µM obtained for COc1cc(OC(=O)c2ccncc2F)ccc1-c1ccc2c(c1COc1cc(F)ccc1C)C(C)=CC(C)(C)N2 with Glucocorticoid Receptor (GR) (Homo sapiens, UniProt P04150).
96%

Kindly state the measured inhibition at 10 µM obtained for CCCC(=O)Oc1ccc(-c2ccc3c(c2COc2cc(F)ccc2C)C(C)=CC(C)(C)N3)c(OC)c1 with Glucocorticoid Receptor (GR) (Homo sapiens, UniProt P04150).
100%
